tested on: K562; test: Antiproliferative activity against human K562 cells assessed as cell growth inhibition incubated for 72 hrs by MTT assay; assay type: functional, cell-based; details: K562, 72 h
VALUE_TYPE: pIC50
Scale explanation: pIC50 corresponds to minus log10 of a concentration expressed in moles per litre.

Would you please look over these solved cases?
>  <SMILES_RECORD>
CN1CCN(c2cc3c(cc2[N+](=O)[O-])-c2c(cnn2-c2ccc(C(=O)O)cc2)C(C)(C)O3)CC1

>  <ASSAY_SYSTEM>
K562

>  <READOUT_NUMBER>
4.78

$$$$
>  <SMILES_RECORD>
CCOC(=O)C1=C(Nc2ccccc2)S/C(=C\c2ccc[nH]2)C1=O

>  <ASSAY_SYSTEM>
K562

>  <READOUT_NUMBER>
4.15

$$$$

Lab book: pIC50 of CCOC(=O)C1=C(Nc2ccccc2)S/C(=C\c2cccc(C(=O)O)c2)C1=O noted as 4.79

The recorded pIC50 for CCOC(=O)C1=C(Nc2ccccc2)S/C(=C\C2CCCCC2)C1=O is 5.23

Recorded pIC50 (molecule CCOC(=O)C1=C(Nc2ccccc2)SC(=C2CN(C(=O)OC(C)(C)C)C2)C1=O ): 4.97

====

species: Homo sapiens; assay: Binding affinity to RNase L (unknown origin) expressed in Escherichia coli BL21 (DE3) assessed as thermal stability by measuring melting temperature at 60 uM incubated for 50 mins by NanoDSF analysis
ΔTm: recorded values

>  <SMILES_RECORD>
CCOC(=O)C1=C(Nc2ccccc2)S/C(=C\c2ccc(C(F)(F)F)cc2)C1=O

>  <VALUE_TYPE>
ΔTm

>  <RESULT>
0.8 °C

$$$$
>  <SMILES_RECORD>
CCOC(=O)C1=C(Nc2ccccc2)SC(=C2CCC2)C1=O

>  <VALUE_TYPE>
ΔTm

>  <RESULT>
0.7 °C

$$$$
>  <SMILES_RECORD>
CCOC(=O)C1=C(Nc2ccccc2)SC(=C2CN(C(=O)OC(C)(C)C)C2)C1=O

>  <VALUE_TYPE>
ΔTm

>  <RESULT>
0.5 °C

$$$$
>  <SMILES_RECORD>
CCOC(=O)C1=C(Nc2ccccc2)S/C(=C\C2CCCCC2)C1=O

>  <VALUE_TYPE>
ΔTm

>  <RESULT>
1.4 °C

$$$$
>  <SMILES_RECORD>
CCOC(=O)C1=C(Nc2ccccc2)S/C(=C\c2cccnc2)C1=O

>  <VALUE_TYPE>
ΔTm

>  <RESULT>
1 °C

$$$$

Just so you know, measured ΔTm for CCOC(=O)C1=C(Nc2ccccc2)S/C(=C\c2ccccc2)C1=O came out at 0.8 °C

Briefly, ΔTm measured for CCOC(=O)C1=C(Nc2ccccc2)S/C(=C\c2ccccc2C(F)(F)F)C1=O : 0.8 °C

====

The entries below are paired with their reported ΔTm.
species on record: Homo sapiens; assay: Binding affinity to RNase L (unknown origin) expressed in Escherichia coli BL21 (DE3) assessed as thermal stability by measuring melting temperature at 60 uM incubated for 50 mins by NanoDSF analysis
# value in °C; strip the unit string

A selection of reference data follows.
>  <SMILES_RECORD>
CCOC(=O)C1=C(Nc2ccccc2)S/C(=C\c2ccc(OC)c(O)c2)C1=O

>  <UNIT_ANNOTATION>
°C

>  <ΔTm>
0.6

$$$$
>  <SMILES_RECORD>
CCOC(=O)C1=C(Nc2ccccc2)S/C(=C2\CCN(C(=O)OC(C)(C)C)C2)C1=O

>  <UNIT_ANNOTATION>
°C

>  <ΔTm>
0.5

$$$$

For the next question, use this compound.
Measured ΔTm, CCOC(=O)C1=C(Nc2ccccc2)SC(=C2CCCCC2)C1=O : 0.7
